Data credit: patent US12077503B2

The reader will find reported pest or weed control at 62.5 g/ha values listed item by item below.
System: barnyardgrass (Echinochloa crus-galli)
Assay: Test G Post-Emergence Protocol
Assay type: in vivo
Settings: Echinochloa crus-galli, post-emergence, 312 h, 62.5 g ai/ha, evaluated after 13 days, 100=total damage to plant, 0=no damage to plant, read-out: Barnyardgrass damage rating
Give a bare numeral; the unit % is implied.

Example entries begin here.
>>> print(df.to_string())
                                   molecule                   reportedproperty  unitssymbol  experimentalresult
0  CN1C[C@@H](c2cccc(Oc3ccc(F)cc3)c2)[C@H](C(=O)Nc2cccc(F)n2)C1=O (racemic) [Compound 1829]  pest or weed control at 62.5 g/ha            %                  60
1  CN1C[C@H](c2ccc(C(F)(F)F)cc2)[C@@H](C(=O)Nc2ccc[n+]([O-])c2C(F)(F)F)C1=O (racemic) [Compound 1813]  pest or weed control at 62.5 g/ha            %                   0
2  CN1C[C@H](c2ccc(C(F)(F)F)cc2)[C@@H](C(=O)Nc2cccc3c2C(=O)OC3)C1=O (racemic) [Compound 1669]  pest or weed control at 62.5 g/ha            %                  30
3  CN1C[C@H](c2cccc(C(F)(F)F)c2)[C@@H](C(=O)Nc2cc(C#N)ccn2)C1=O (racemic) [Compound 1735]  pest or weed control at 62.5 g/ha            %                   0

query: Which measured pest or weed control at 62.5 g/ha value corresponds to CN1C[C@H](c2cc(C(C)(C)C)ncn2)[C@@H](C(=O)Nc2ccc(F)c(F)c2F)C1=O (racemic) [Compound 1668] ?
result: 0

query: Which measured pest or weed control at 62.5 g/ha value corresponds to CON1C[C@H](c2ccc(F)c(F)c2)[C@@H](C(=O)Nc2ccc(F)c(F)c2F)C1=O [Compound 1679] ?
result: 80

query: Which measured pest or weed control at 62.5 g/ha value corresponds to CN1C[C@H](c2cccc(C(F)(F)F)c2)[C@@H](C(=O)Nc2cnccc2[N+](=O)[O-])C1=O (racemic) [Compound 1731] ?
result: 0

query: Which measured pest or weed control at 62.5 g/ha value corresponds to CN1C[C@@H](c2cccc(C(F)(F)F)c2)[C@H](C(=O)Nc2cccc(F)n2)C1=O [Compound 1817] ?
result: 0

query: Which measured pest or weed control at 62.5 g/ha value corresponds to CN1C[C@@H](c2cccc(C(F)(F)F)c2)[C@H](C(=O)Nc2cccnc2F)C1=O [Compound 1823] ?
result: 0

---

The reader will find reported pest or weed control at 250 g/ha values listed item by item below.
System: barnyardgrass (Echinochloa crus-galli)
Assay: Test G Post-Emergence Protocol
Format: in vivo
Details: Echinochloa crus-galli, post-emergence, 312 h, 250 g ai/ha, evaluated after 13 days, read-out: damage to plant, Barnyardgrass (100=total damage to plant; 0=no damage to plant)
Give a bare numeral; the unit % is implied.

query: Provide value of pest or weed control at 250 g/ha for this record tested with barnyardgrass (Echinochloa crus-galli): Cc1nc(NC(=O)[C@@H]2C(=O)N(C)C[C@H]2c2ccc(C(F)(F)F)cc2)ccc1F (racemic)
result: 60

query: Provide value of pest or weed control at 250 g/ha for this record tested with barnyardgrass (Echinochloa crus-galli): CN1C[C@@H](c2ccc(C(F)(F)F)cc2)[C@H](C(=O)Nc2nccc(C(F)(F)F)n2)C1=O (racemic)
result: 0

query: Provide value of pest or weed control at 250 g/ha for this record tested with barnyardgrass (Echinochloa crus-galli): C=CCc1c(Cl)cccc1NC(=O)[C@H]1C(=O)N(C)C[C@@H]1c1ccc(C(F)(F)F)cc1 (racemic)
result: 10

query: Provide value of pest or weed control at 250 g/ha for this record tested with barnyardgrass (Echinochloa crus-galli): CN1C[C@@H](c2ccc(C(F)(F)F)cc2)[C@H](C(=O)Nc2ncc(Cl)s2)C1=O (racemic)
result: 20

query: Provide value of pest or weed control at 250 g/ha for this record tested with barnyardgrass (Echinochloa crus-galli): CN1C[C@H](c2ccc(C(F)(F)F)cc2)[C@@H](C(=O)Nc2ncc(F)cc2F)C1=O (racemic)
result: 0

query: Provide value of pest or weed control at 250 g/ha for this record tested with barnyardgrass (Echinochloa crus-galli): COc1c(Cl)ccc([C@H]2CN(C)C(=O)[C@@H]2C(=O)Nc2cccc(F)n2)c1F (racemic)
result: 60

query: Provide value of pest or weed control at 250 g/ha for this record tested with barnyardgrass (Echinochloa crus-galli): CN1C[C@@H](c2ccc(C(F)(F)F)cc2)[C@H](C(=O)Nc2ncc(C(F)(F)F)s2)C1=O (racemic)
result: 0
